Ref: the supplement of paper PMC10567573

Reported protein stability index values are given for each entry in this list.
B1: TRAF3IP2 (parent)
chain: APWNYHYHCPGSPDHQVPYGHDYP

- Variants of: B1
- testDetails: protein stability index of a GFP-peptide fusion (GPS, HEK-293T) (PSI 1-6); higher = more stable;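 further: lentivirally expressed fusions sorted by FACS into six bins by GFP to DsRed ratio, PSI derived from sequencing read proportions per bin multiplied by bin number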
- appliedConditions: c terminus: a fixed tail appended
// no unit, no text: just the number

mutationCode | protein stability index
A1Y | 2.37
V17K | 2.53
H6F | 2.14
C9P | 1.9

In the following, a different variant is considered.
Bench note: what protein stability index did `H15R` show?
2.1
